pKd: −log10 of the molar value.
pKd data for UniProt:P14207 follow.
Sequence (P14207 17-255): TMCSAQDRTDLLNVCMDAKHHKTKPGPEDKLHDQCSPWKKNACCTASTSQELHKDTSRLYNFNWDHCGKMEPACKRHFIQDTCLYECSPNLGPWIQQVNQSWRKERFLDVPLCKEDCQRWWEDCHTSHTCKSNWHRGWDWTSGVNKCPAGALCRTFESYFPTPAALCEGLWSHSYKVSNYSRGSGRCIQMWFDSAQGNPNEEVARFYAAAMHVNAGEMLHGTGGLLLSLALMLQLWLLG
quantity: pKd

P: Cc1nc2cc(F)c(-c3cnc(OCCCCCn4cc(COCCOCCOCCOCCOCCOCCOCCOCCOCCOCCNC(=O)CC[C@H](NC(=O)c5ccc(NCc6cnc7nc(N)nc(O)c7n6)cc5)C(=O)O)nn4)nc3)nc2c(N[C@H](C)c2cc(C#N)ccc2F)c1Cl
Q: Nc1nc(O)c2nc(CNc3ccc(C(=O)N[C@@H](CCC(=O)NCCOCCOCCOCCOCc4cn(CCCCCOc5ccc(-c6ccc7nc(COc8cccc(N9CCCC9=O)c8)n(Cc8ccccc8OC(F)F)c7c6)cn5)nn4)C(=O)O)cc3)cnc2n1
## Task Just curious, which one has the larger pKd reading, P or Q ? // caller expects the label of the chosen entry
## Result P
